Items are presented alongside their recorded pEC50.
System: HCV 2a JFH-1 Rluc cells (dicistronic genotype 2a JFH-1 replicon, RLuc reporter)
ASSAY_NAME: microbe, parasite or virus in culture
Format: cell-based
PARTICULARS: Hepatitis C virus, 72 h, Table 2; genotype 2a JFH-1 replicon, 72 hours; read-out: 2a JFH
pEC50: −log10 of the molar value.

Worked cases, answers included:
[
  {
    "MOLECULE": "COC(=O)N[C@H](C(=O)N1CCC[C@H]1c1ncc(-c2ccc3cc(-c4ccc(-c5cnc([C@@H]6CC(=O)CN6C(=O)[C@@H](c6ccccc6)N(C)C)[nH]5)cc4)ccc3c2)[nH]1)C(C)C",
    "TARGET_OR_SYSTEM": "HCV 2a JFH-1 Rluc cells (dicistronic genotype 2a JFH-1 replicon, RLuc reporter)",
    "pEC50": "9.00 to 12.00"
  },
  {
    "MOLECULE": "COC(=O)N[C@H](C(=O)N1CCC[C@H]1c1nc2ccc3cc(-c4ccc5c(ccc6nc([C@@H]7[C@H]8CC[C@H](C8)N7C(=O)[C@@H](NC(=O)OC)C7CCOCC7)[nH]c65)c4)ccc3c2[nH]1)C(C)C",
    "TARGET_OR_SYSTEM": "HCV 2a JFH-1 Rluc cells (dicistronic genotype 2a JFH-1 replicon, RLuc reporter)",
    "pEC50": "9.00 to 12.00"
  },
  {
    "MOLECULE": "COC(=O)N[C@H](C(=O)N1CCC[C@H]1c1nc2ccc3cc(-c4ccc5c(c4)CCc4nc([C@@H]6[C@H]7CC[C@H](C7)N6C(=O)[C@@H](NC(=O)OC)C6CCOCC6)[nH]c4-5)ccc3c2[nH]1)C(C)C",
    "TARGET_OR_SYSTEM": "HCV 2a JFH-1 Rluc cells (dicistronic genotype 2a JFH-1 replicon, RLuc reporter)",
    "pEC50": "9.00 to 12.00"
  },
  {
    "MOLECULE": "COC(=O)N[C@H](C(=O)N1CCC[C@H]1c1ncc(-c2ccc3c(c2)C(F)(F)c2cc(-c4ccc5nc([C@@H]6CC7(CN6C(=O)[C@H](NC(=O)OC)c6ccccc6)OCCO7)[nH]c5c4)ccc2-3)[nH]1)C1CCOCC1",
    "TARGET_OR_SYSTEM": "HCV 2a JFH-1 Rluc cells (dicistronic genotype 2a JFH-1 replicon, RLuc reporter)",
    "pEC50": "9.00 to 12.00"
  },
  {
    "MOLECULE": "COC(=O)N[C@H](C(=O)N1CC2(CC2)C[C@H]1c1ncc(-c2ccc3c(c2)C(F)(F)c2cc(-c4ccc5nc([C@@H]6[C@H]7CC[C@H](C7)N6C(=O)[C@H](c6ccccc6)N6CCOCC6)[nH]c5c4)ccc2-3)[nH]1)C(C)C",
    "TARGET_OR_SYSTEM": "HCV 2a JFH-1 Rluc cells (dicistronic genotype 2a JFH-1 replicon, RLuc reporter)",
    "pEC50": "7.36 to 9.00"
  }
]

Sample "COC(=O)N[C@H](C(=O)N1CC2(CC2)C[C@H]1c1ncc(-c2ccc3c(c2)C(F)(F)c2cc(-c4cnc([C@@H]5[C@H]6CC[C@H](C6)N5C(=O)[C@H](NC(=O)OC)c5ccccc5)[nH]4)ccc2-3)[nH]1)C(C)C" ; pEC50 observed: 7.36 to 9.00

Form: molecule = COC(=O)NC(C(=O)N1CCC[C@@H]1c1nc(-c2ccc3c(c2)C(F)(F)c2cc(-c4ccc5nc([C@@H]6[C@H]7CC[C@H](C7)N6C(=O)[C@H](NC(=O)OC)c6ccccc6)[nH]c5c4)ccc2-3)c[nH]1)[C@@H](C)OC (stereo partly shown) ; pEC50 = 9.00 to 12.00

The recorded pEC50 for entry "COC(=O)N[C@H](C(=O)N1CCC[C@H]1c1ncc(-c2ccc3cc(-c4ccc(-c5cnc([C@@H]6[C@@H]7CC[C@@H](C7)N6C(=O)[C@H](NC(=O)OC)c6ccccc6)[nH]5)cc4)ccc3c2)[nH]1)C(C)C" equals 7.36 to 9.00

Reported pEC50 for "COC(=O)N[C@H](C(=O)N1CCC[C@H]1c1ncc(-c2ccc3c(c2)COc2cc(-c4ccc5nc([C@@H]6[C@H]7CC[C@H](C7)N6C(=O)[C@H](NC(=O)OC)c6ccccc6)[nH]c5c4)ccc2-3)[nH]1)C(C)C" was 9.00 to 12.00

Measured pEC50 of "COC(=O)N[C@H](C(=O)N1CCC[C@H]1c1ncc(-c2ccc(-c3ccc(-c4cnc([C@@H]5CCCN5C(=O)[C@H](NC(=O)OC)c5ccccc5)[nH]4)cc3)cc2)[nH]1)C(C)C" : 9.00 to 12.00

The molecule listed as CCN(CC)[C@@H](C(=O)N1CCC[C@H]1c1ncc(-c2ccc3cc(-c4ccc(-c5cnc([C@@H]6CC7(COCO7)CN6C(=O)[C@@H](NC(=O)OC)C(C)C)[nH]5)cc4)ccc3c2)[nH]1)c1ccccc1 (stereo partly shown) has a reported pEC50 of 9.00 to 12.00

Notebook: "COC(=O)N[C@H](C(=O)N1CCC[C@H]1c1nc2ccc3cc(-c4ccc5cc(-c6cnc([C@@H]7[C@H]8CC[C@H](C8)N7C(=O)[C@H](NC(=O)OC)c7ccccc7)[nH]6)ccc5c4)ccc3c2[nH]1)C(C)C" , pEC50 read as 7.36 to 9.00

pEC50 reported for this molecule COC(=O)NC(C(=O)N1CCC[C@H]1c1ncc(-c2ccc(-c3ccc4c(ccc5nc([C@@H]6[C@H]7CC[C@H](C7)N6C(=O)[C@@H](NC(=O)OC)C(C)C)[nH]c54)c3)cc2)[nH]1)C(C)C (stereo partly shown) : 9.00 to 12.00

meta.source: patent US10344019B2
